Every entry's value here was drawn from PubChem BioAssay (NCI).

assay: NCI Yeast Anticancer Drug Screen. Data for the sgs1 mgt1 strain (AID 161);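 also: 0% = growth of cultures given vehicle only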; settings: S. cerevisiae sgs1 mgt1 strain, at 50.0 µM, active compounds read high
Compounds without any hit were thinned out: in the full panel of roughly 79,000, 15% have a hit.
measure-name: growth inhibition (%)
Report the figure in % without appending any unit label.

C1OC2OC3OCOC3C2O1 (configuration not stated) | -2.1
CC(=O)OCCOC(=O)Nc1ccccc1 | -13.9
CC(C)=C1C(=O)C[C@]2(C)C[C@H]3/C(=C(/C)CCC12)CC[C@@]3(C)O (some centres not stated) | 2
O=S(=O)(N/N=C(/CC/C(=N\NS(=O)(=O)c1ccccc1)c1ccccc1)c1ccccc1)c1ccccc1 | 11.7
CC(=N/N(C)c1ccccc1)/C(C)=N/N(C)c1ccccc1 | 3.7
O=C(NO)C(=O)NO | -1.9
COc1ccc(CC(CN)P(=O)(O)O)cc1 (configuration not stated) | 8.5
O=C1c2ccccc2C(=C(c2ccccc2)c2ccccc2)c2ccccc21 | -10.3

The reported value for O=C(O)c1ccccc1C(NC(=O)N1C(=O)C=CC1=O)NC(=O)N1C(=O)C=CC1=O in terms of growth inhibition is -2.85

Reported growth inhibition of Cc1ccc(S(=O)(=O)N/N=C2/CC3CCC2C3)cc1 (configuration not stated) : -19.7

Given item COC(=O)C1=C(C)NC(C)=C(C(=O)OC)C1c1ccc(NC(C)=O)cc1 , the value recorded as its growth inhibition is 13.3

Entry CCN(CC)C(=O)C1CCCCN1 (configuration not stated) ; growth inhibition = 3.1

In plain terms, CSc1nc(NC2OCC(OC(C)=O)C(OC(C)=O)C2OC(C)=O)c2c(n1)OCC2=O (configuration not stated) has a documented growth inhibition of -21.6

Item: O=C1c2ccccc2C(=O)N1Cc1ccc(CN2C(=O)c3ccccc3C2=O)cc1 | growth inhibition: -16

CCc1nnc(CC)n1N has a reported growth inhibition of 41.8

Lookup result for C=CCCCCCCCCC(N)=O ; measured growth inhibition: 4.15

The compound listed as Cc1c(-c2ccccc2)nnn1-c1ccc(F)cc1F shows growth inhibition equal to 13.4
